Source of measurements: a melting point compilation (Tetko et al.; mined from patent text by program, amines drawn as free bases though some values may be those of a salt)

Readout Type: melting point

Some compounds with recorded melting point:
INSERT INTO results (compound, observed) VALUES
  ('CCOc1ccc2c(c1)n(CCN1CCOCC1)c(=O)n2S(=O)(=O)c1ccc(OC)cc1OC', '146 to 149 °C'),
  ('CC(C)(C)OC(=O)COc1ccc(NC(=O)NC(=O)c2ccc(C(N)=S)nc2)cc1', '248 to 249 °C'),
  ('CC(C)CCCOc1ccc2[nH]ncc2c1', '124 to 126 °C'),
  ('COc1ccccc1[C@H](c1cccc2ccccc12)[C@@](C)(C#N)C(=O)N1CCN(c2ccccc2Cl)CC1', '145 to 147 °C'),
  ('CC(=O)Nc1cc(C(F)(F)F)ccc1N1CCOCC1', '85 °C');

Value lookup for melting point; key = CCOc1ccc(C2=NN(Cc3ccc(C(=O)O)cc3)C(=O)[C@H]3CCCC[C@@H]23)cc1OCC (relative stereo)
152 to 154 °C

Value lookup for melting point; key = `COc1cc(OC)cc(-c2nc[nH]c2-c2ccc(OC(F)(F)F)c(N)c2)c1`
182 to 184 °C

Value lookup for melting point; key = `CCCCCCCCCCCCCCCc1ccc(CO)c(O)c1`
94 to 95 °C

Value lookup for melting point; key = `COc1cc(OC)c(-c2ccccc2)nn1`
53 to 54 °C

Value lookup for melting point; key = `O=C(c1ccc(Cl)cc1)c1cc(-c2ccc(Cl)cc2)c(N2CCOCC2)s1`
145 to 149 °C

* * *

A collection of compounds and their measured melting point

Value lookup for melting point; key = CN1CCC(CC2CN=C(c3cc4cccc(N(C)S(=O)(=O)c5cccs5)c4[nH]3)S2)=N1 (centres undefined)
149 to 150 °C

Value lookup for melting point; key = CN(C)C(=O)N(c1ccc(OC(F)(F)F)c(Cl)c1)C(C(=O)O)c1ccc(Cl)cc1 (centres undefined)
77 °C

* * *

Readout Type: melting point

INSERT INTO measurements (molecule, observed) VALUES
  ('COc1ccncc1NC(=O)c1c[nH]c2c1C(=O)CCC2', '209 to 210 °C');

Value lookup for melting point; key = `Cc1nc(-c2nc(C)c(-c3ccnc(Nc4cc(Cl)c(N5CCOCC5)c(Cl)c4)n3)s2)cs1`
> 300 °C

Value lookup for melting point; key = `Cc1cnc2sc(Sc3ccccc3)nn2c1=O`
141 to 143 °C

Value lookup for melting point; key = `CCCNC(=O)C1(CCCCNc2ccc(Br)nc2)c2ccccc2-c2ccccc21`
67 to 69 °C

Value lookup for melting point; key = CC(C)(CO)CNC(=O)c1nn(C2CCCCO2)cc1NC(=O)c1ccccn1 (stereo not given)
189 to 190 °C

* * *

A collection of compounds and their measured melting point

Some compounds with recorded melting point:
INSERT INTO measurements (compound, observed) VALUES
  ('CC(C)(C)c1cc2c(c(C(C)(C)C)c1O)CC1(CCCCC1)S2', '128 °C'),
  ('CC(=O)Nc1c(CC(=O)O)c2ccccc2n1C', '200 to 206 °C'),
  ('C/C(=N\OC(=O)CN(C)C)[C@H]1CC[C@H]2[C@@H]3CCC4=CC(=O)CC[C@]4(C)[C@H]3CC[C@]12C', '129 to 131 °C'),
  ('CCN(c1c(-c2ccccc2)[nH]c(C)c1C(=O)c1ccccc1)S(=O)(=O)c1ccc(C)cc1', '224 to 225 °C'),
  ('CCOC(=O)c1c(CN2CCOCC2)nc2cc3c(cc2c1-c1ccc(OC)c(OC)c1)OCCO3', '174 to 175 °C');

Value lookup for melting point; key = `CC(C)(C)OC(=O)Nc1ccc(-c2ccccc2F)cc1[N+](=O)[O-]`
131 to 133 °C

Value lookup for melting point; key = `COc1cc(-c2nc3ccc(O)cc3n2Cc2ccccc2C(F)(F)F)cc(OC)c1OC`
191 °C

Value lookup for melting point; key = `CCOCCCOc1ccc(-c2ccc3c(c2)C=C(C(=O)OC)CCN3)cc1`
99 to 102 °C

Value lookup for melting point; key = `COC(=O)C1=Cc2cc(-c3ccc(OCCOC(C)C)cc3)ccc2N(C=O)CC1`
107 to 108 °C

Value lookup for melting point; key = Cc1ccc(N2C(=O)C(O)=C(C(=O)c3ccc(C(C)C)cc3)C2c2ccc(O)cc2)nn1 (centres undefined)
222 to 224 °C

Value lookup for melting point; key = `CC(C)c1cccc(-c2nscc2C(=O)O)c1`
143 to 157 °C

Value lookup for melting point; key = `CC(C)c1cc(CO)cc(C(C)C)c1NC(=O)CN1CCN(CCSc2nc3cccc(C(F)(F)F)c3o2)CC1`
146 to 148 °C

Value lookup for melting point; key = `Nc1ncnc2c1ncn2CCCN1CCC(NC(=O)c2ccccc2)CC1`
213 to 214 °C

Value lookup for melting point; key = CSCCC(C)NC(=O)c1c(I)cccc1C(=O)O (centres undefined)
148 to 150 °C

Value lookup for melting point; key = `CC(C)NC(=O)c1c(NC(=O)c2cc(C(F)(F)F)nn2-c2ncccc2Cl)c(C#N)cc2cn[nH]c12`
226 to 229 °C

Value lookup for melting point; key = O=c1c2ccccc2oc2cc(OCC3CO3)ccc12 (centres undefined)
157 to 158 °C

Value lookup for melting point; key = `COC(=O)c1ccc(OCc2ccccc2)c(OC2CCCC2)c1`
58 to 59 °C

Value lookup for melting point; key = CC(Cc1c[nH]c2ccccc12)(NC(=O)OC1C2CC3CC(C2)CC1C3)C(=O)NCC(NC(=O)C1CC1C(=O)O)c1ccccc1 (centres undefined)
138 to 142 °C

Value lookup for melting point; key = Cc1cc2c(c3ccc(=O)[nH]c13)OC(CNC(=O)C(C)(C)NC(=O)OCc1ccccc1)C2 (centres undefined)
220 to 222 °C
